// provenance: patent US20250320194A1

- PROTOCOL DETAILS: Stability under influencing factors (high temperature, high humidity, open, 30 days)
- EXPERIMENTAL CONTEXT: 60° C., 30 days
MEASURE: Purity %

[[record]]
compound = "CC(C)(C#Cc1nc(C(Cc2cc(F)cc(F)c2)NC(=O)Cn2nc(C(F)(F)F)c3c2C(F)(F)C2CC32)c(-c2ccc(Cl)c3c(NS(C)(=O)=O)nn(CC(F)(F)F)c23)c2c1CCC2)S(C)(=O)=O.O=S(=O)(O)O (stereo not shown) [Crystal form A of hydrosulfate]"
endpoint_value = "95.17%"

[[record]]
compound = "CC(C)(C#Cc1nc(C(Cc2cc(F)cc(F)c2)NC(=O)Cn2nc(C(F)(F)F)c3c2C(F)(F)C2CC32)c(-c2ccc(Cl)c3c([N-]S(C)(=O)=O)nn(CC(F)(F)F)c23)c2c1CCC2)S(C)(=O)=O.C[N+](C)(C)CCO (stereo not shown) [Crystal form B of the choline salt]"
endpoint_value = "98.36%"

[[record]]
compound = "CC(C)(C#Cc1nc(C(Cc2cc(F)cc(F)c2)NC(=O)Cn2nc(C(F)(F)F)c3c2C(F)(F)C2CC32)c(-c2ccc(Cl)c3c([N-]S(C)(=O)=O)nn(CC(F)(F)F)c23)c2c1CCC2)S(C)(=O)=O.[Na+] (stereo not shown) [Crystal form III of the sodium salt]"
endpoint_value = "97.99%"

[[record]]
compound = "CC(C)(C#Cc1nc(C(Cc2cc(F)cc(F)c2)NC(=O)Cn2nc(C(F)(F)F)c3c2C(F)(F)C2CC32)c(-c2ccc(Cl)c3c([N-]S(C)(=O)=O)nn(CC(F)(F)F)c23)c2c1CCC2)S(C)(=O)=O.[K+] (stereo not shown) [Crystal form a of the potassium salt]"
endpoint_value = "97.82%"


* * *

- PROTOCOL DETAILS: Stability under influencing factors (high temperature, high humidity, open, 30 days)
- EXPERIMENTAL CONTEXT: 40° C., 30 days
MEASURE: Color, properties

[[record]]
compound = "CC(C)(C#Cc1nc(C(Cc2cc(F)cc(F)c2)NC(=O)Cn2nc(C(F)(F)F)c3c2C(F)(F)C2CC32)c(-c2ccc(Cl)c3c([N-]S(C)(=O)=O)nn(CC(F)(F)F)c23)c2c1CCC2)S(C)(=O)=O.[Na+] (stereo not drawn) [Crystal form II of the sodium salt]"
endpoint_value = "White solid"

[[record]]
compound = "CC(C)(C#Cc1nc(C(Cc2cc(F)cc(F)c2)NC(=O)Cn2nc(C(F)(F)F)c3c2C(F)(F)C2CC32)c(-c2ccc(Cl)c3c([N-]S(C)(=O)=O)nn(CC(F)(F)F)c23)c2c1CCC2)S(C)(=O)=O.C[N+](C)(C)CCO (stereo not drawn) [Crystal form B of the choline salt]"
endpoint_value = "White solid"

[[record]]
compound = "CC(C)(C#Cc1nc(C(Cc2cc(F)cc(F)c2)NC(=O)Cn2nc(C(F)(F)F)c3c2C(F)(F)C2CC32)c(-c2ccc(Cl)c3c([N-]S(C)(=O)=O)nn(CC(F)(F)F)c23)c2c1CCC2)S(C)(=O)=O.[Na+] (stereo not drawn) [Crystal form III of the sodium salt]"
endpoint_value = "White solid"


* * *

- PROTOCOL DETAILS: Stability under influencing factors (high temperature, high humidity, open, 30 days)
- EXPERIMENTAL CONTEXT: 60° C., 10 days
MEASURE: Crystal form

[[record]]
compound = "CC(C)(C#Cc1nc(C(Cc2cc(F)cc(F)c2)NC(=O)Cn2nc(C(F)(F)F)c3c2C(F)(F)C2CC32)c(-c2ccc(Cl)c3c([N-]S(C)(=O)=O)nn(CC(F)(F)F)c23)c2c1CCC2)S(C)(=O)=O.C[N+](C)(C)CCO (stereo not drawn) [Crystal form B of the choline salt]"
endpoint_value = "Unchanged"

[[record]]
compound = "CC(C)(C#Cc1nc(C(Cc2cc(F)cc(F)c2)NC(=O)Cn2nc(C(F)(F)F)c3c2C(F)(F)C2CC32)c(-c2ccc(Cl)c3c(NS(C)(=O)=O)nn(CC(F)(F)F)c23)c2c1CCC2)S(C)(=O)=O.O=S(=O)(O)O (stereo not drawn) [Crystal form A of hydrosulfate]"
endpoint_value = "Unchanged"

[[record]]
compound = "CC(C)(C#Cc1nc(C(Cc2cc(F)cc(F)c2)NC(=O)Cn2nc(C(F)(F)F)c3c2C(F)(F)C2CC32)c(-c2ccc(Cl)c3c([N-]S(C)(=O)=O)nn(CC(F)(F)F)c23)c2c1CCC2)S(C)(=O)=O.[K+] (stereo not drawn) [Crystal form a of the potassium salt]"
endpoint_value = "Unchanged"

